Test system: Jurkat human T lymphocyte cell line
Test: Apoptosis assay (Annexin V) of compounds incubated with human serum
Details: Table 4; serum, 48 hr; 3 nM
Procedure: Compounds of formula I, as shown in Table 1 above and in the Examples, were assayed for their capacity to induce apoptosis in cells from the Jurkat human T lymphocyte cell line, after incubation with pooled human serum for varying periods of time at 37° C. (see Example 19). An ester prodrug, triptolide-14-succinate, designated PG490-88, was included for comparison. The extent of conversion to triptolide after such incubation was also independently determined by HPLC analysis. […]
# Lookup of reported % apoptotic cells at given concentration (nM) keyed by entry
Just the number please, in %, no unit attached.

Answered cases to consult:
INSERT INTO measurements (compound, quantitativereadout) VALUES
  ('CC(C)[C@]12O[C@H]1[C@@H]1O[C@]13[C@]1(O[C@H]1C[C@H]1C4=C(CC[C@@]13C)C(=O)OC4)[C@@H]2O [PG490, Triptolide]', 7.0),
  ('CC(C)[C@]12O[C@H]1[C@@H]1O[C@]13[C@]1(O[C@H]1C[C@H]1C4=C(CC[C@@]13C)C(=O)OC4)[C@@H]2OC(=O)CCC(N)C(=O)O (stereo partly drawn) [PG661, 14-isoglutamyl ester, reference compound]', 39.1);

*Q* Dear colleague, I am looking for the recorded % apoptotic cells at given concentration (nM) of the following compound: CCNC(=O)O[C@@H]1[C@@]2(C(C)C)O[C@H]2[C@@H]2O[C@]23[C@]12O[C@H]2C[C@H]1C2=C(CC[C@@]13C)C(=O)OC2 [PG666, Triptolide 14-Ethyl Carbamate]
*A* 39.8

----------
Test: in vitro
Conditions: human, plasma
Method: Compounds of formula I, as shown in Table 1 above and in the Examples, were assayed for their capacity to induce apoptosis in cells from the Jurkat human T lymphocyte cell line, after incubation with pooled human serum for varying periods of time at 37° C. (see Example 19). […] The extent of conversion to triptolide after such incubation was also independently determined by HPLC analysis. Prodrug conversions to triptolide as determined independently by HPLC are given in […].
# Lookup of reported half-life keyed by entry
Just the number please, in min, no unit attached.

Answered cases to consult:
INSERT INTO measurements (compound, quantitativereadout) VALUES
  ('CCOC(=O)O[C@@H]1[C@@]2(C(C)C)O[C@H]2[C@@H]2O[C@]23[C@]12O[C@H]2C[C@H]1C2=C(CC[C@@]13C)C(=O)OC2 [PG674, Triptolide 14-Ethyl Carbonate]', 12),
  ('CC(C)[C@]12O[C@H]1[C@@H]1O[C@]13[C@]1(O[C@H]1C[C@H]1C4=C(CC[C@@]13C)C(=O)OC4)[C@@H]2OC(=O)OCCN(C)C.Cc1ccc(S(=O)(=O)O)cc1 [PG682PTSA]', 17),
  ('CC(C)[C@]12O[C@H]1[C@@H]1O[C@]13[C@]1(O[C@H]1C[C@H]1C4=C(CC[C@@]13C)C(=O)OC4)[C@@H]2OC(=O)OCCN(C)C [PG682]', 17),
  ('COC(=O)COC(=O)O[C@@H]1[C@@]2(C(C)C)O[C@H]2[C@@H]2O[C@]23[C@]12O[C@H]2C[C@H]1C2=C(CC[C@@]13C)C(=O)OC2 [PG680]', 9),
  ('CC(C)[C@]12O[C@H]1[C@@H]1O[C@]13[C@]1(O[C@H]1C[C@H]1C4=C(CC[C@@]13C)C(=O)OC4)[C@@H]2OC(=O)Oc1ccccc1 [PG676, Triptolide 14-Phenyl Carbonate]', 15);

Turning now to a further record.
*Q* Dear colleague, I am looking for the recorded half-life of the following compound: CCOCCOC(=O)O[C@@H]1[C@@]2(C(C)C)O[C@H]2[C@@H]2O[C@]23[C@]12O[C@H]2C[C@H]1C2=C(CC[C@@]13C)C(=O)OC2 [PG679, Triptolide 14-Ethoxyethyl Carbonate]
*A* 11
